Measured pKd values are reported for all entries that follow.
- ASSAYED_TARGET: PI3Kδ (Homo sapiens, UniProt O00329)
- Construct: purchased DiscoveRx Corporation, San Diego (contract service, KINOMEscan)
- ASSAY_OVERVIEW: Enzyme binding assay (KINOMEscan, DiscoveRx)
- ASSAY_SETUP: PIK3Cδ_h
In simple prose, pKd is minus the logarithm base ten of a concentration in moles per litre.

Check out these entries, answers already filled in.
{"COMPOUND": "CC(Nc1cccc(C#N)c1)c1cc(C(=O)N(C)C)cc2ncc(N3CCOCC3)nc12 (stereo not shown) [Compound 155]", "ASSAYED_TARGET": "PI3Kδ (Homo sapiens, UniProt O00329)", "pKd": 6.12}
{"COMPOUND": "CN(C)C(=O)c1cc(N2CCC2c2ccc(F)cc2)c2nc(N3CCOCC3)cnc2c1 (single isomer, unassigned) [Compound 397a]", "ASSAYED_TARGET": "PI3Kδ (Homo sapiens, UniProt O00329)", "pKd": 4.97}

Now, please, on to the next compound.
Kindly indicate its recorded pKd. Item: COC(=O)c1cc(C(C)Nc2cccc(F)c2)c2nc(N3CCOCC3)cnc2c1 (single isomer, unassigned) [Compound 262a]
4.61

* * *

The reader will find Kd measurements below, all made with PI3Kδ (Homo sapiens, UniProt O00329).
Give a bare numeral; the unit nM is implied.

# annotated cases, reported Kd shown
{"COMPOUND": "CN(CCO)Cc1cc(C2CCCN2c2cc(F)cc(F)c2)c2nc(N3CCOCC3)cnc2c1 (centres unmarked)", "READING_UNIT": "nM", "Kd": 40}
{"COMPOUND": "CN(C)C(=O)c1cc(C2CCCN2c2cccc(F)c2)c2nc(N3CCOCC3)cnc2c1 (centres unmarked)", "READING_UNIT": "nM", "Kd": 29}
{"COMPOUND": "CNCCN(C)C(=O)c1cc(C(C)Nc2cc(F)c(F)c(F)c2)c2nc(N3CCOCC3)cnc2c1 (single isomer, unassigned) [Compound 335b]", "READING_UNIT": "nM", "Kd": 3420}
{"COMPOUND": "CC(Nc1cc(F)cc(F)c1)c1cc(C(=O)O)cc2ncc(N3CCOCC3)nc12 (centres unmarked) [Compound 236]", "READING_UNIT": "nM", "Kd": 158}

Under PI3Kδ (Homo sapiens, UniProt O00329): report Kd of CNCCNC(=O)c1cc([C@@H](C)Oc2cccc(F)c2)c2nc(N3CCOCC3)cnc2c1 [Compound 122a] .
660

* * *

Catalogue of pKd values
- ASSAYED_TARGET: PI3Kδ (Homo sapiens)
- Sequence (O00329 1-1044): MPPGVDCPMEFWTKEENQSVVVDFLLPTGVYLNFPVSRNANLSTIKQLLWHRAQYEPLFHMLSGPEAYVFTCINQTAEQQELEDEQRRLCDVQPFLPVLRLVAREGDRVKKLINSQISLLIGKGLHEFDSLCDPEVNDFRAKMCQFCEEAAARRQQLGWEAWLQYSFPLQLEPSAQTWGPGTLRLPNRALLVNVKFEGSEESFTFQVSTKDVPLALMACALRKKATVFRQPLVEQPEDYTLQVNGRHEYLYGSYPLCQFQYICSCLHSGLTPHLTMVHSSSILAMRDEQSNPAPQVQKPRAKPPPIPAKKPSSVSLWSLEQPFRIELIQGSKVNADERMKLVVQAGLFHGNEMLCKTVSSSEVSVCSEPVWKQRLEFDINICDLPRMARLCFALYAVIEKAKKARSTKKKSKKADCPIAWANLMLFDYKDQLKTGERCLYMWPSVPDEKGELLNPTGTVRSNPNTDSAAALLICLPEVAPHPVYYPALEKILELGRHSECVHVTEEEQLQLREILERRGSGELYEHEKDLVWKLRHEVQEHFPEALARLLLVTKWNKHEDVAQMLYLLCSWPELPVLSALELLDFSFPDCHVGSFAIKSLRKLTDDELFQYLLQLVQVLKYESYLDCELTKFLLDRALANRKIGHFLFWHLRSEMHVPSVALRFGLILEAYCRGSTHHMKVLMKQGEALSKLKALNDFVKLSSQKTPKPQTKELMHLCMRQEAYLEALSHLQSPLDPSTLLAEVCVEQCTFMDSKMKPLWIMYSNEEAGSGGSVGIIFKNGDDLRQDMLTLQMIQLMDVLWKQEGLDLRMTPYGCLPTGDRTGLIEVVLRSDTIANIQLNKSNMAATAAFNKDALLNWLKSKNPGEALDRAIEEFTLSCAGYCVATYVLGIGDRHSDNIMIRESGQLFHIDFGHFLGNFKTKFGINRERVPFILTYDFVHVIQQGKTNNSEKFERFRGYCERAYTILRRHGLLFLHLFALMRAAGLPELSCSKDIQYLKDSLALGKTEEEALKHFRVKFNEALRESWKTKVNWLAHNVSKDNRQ
Answer as the number alone; pKd is minus log10 of concentration in mol/L.

State its pKd: CC(Nc1ccc(F)c(F)c1)c1cc(C(=O)NCCN(C)C)cc2ncc(N3CCOCC3)nc12 (stereo not shown) [Compound 281]
7.04

Look up and report measured pKd for this entry: CC(Nc1cc(F)cc(F)c1)c1cc(C(=O)N(C)C)cc2ncc(N3CCOCC3)nc12 (single isomer, unassigned) [Compound 12]
7.12

Please report the measured pKd for CC(Nc1ccc(F)c(F)c1)c1cc(C(=O)NCCN(C)C)cc2ncc(N3CCOCC3)nc12 (single isomer, unassigned) [Compound 281a]
7.14

Note down pKd recorded for CN[C@H]1CCN(C(=O)c2cc(C(C)Nc3ccc(F)c(F)c3)c3nc(N4CCOCC4)cnc3c2)C1 (mixture of isomers) [Compound 365]
6.93

* * *

Quick note: these are Kd numbers for system: kinase enzymes (Homo sapiens)
Sequence (P48736 whole entry): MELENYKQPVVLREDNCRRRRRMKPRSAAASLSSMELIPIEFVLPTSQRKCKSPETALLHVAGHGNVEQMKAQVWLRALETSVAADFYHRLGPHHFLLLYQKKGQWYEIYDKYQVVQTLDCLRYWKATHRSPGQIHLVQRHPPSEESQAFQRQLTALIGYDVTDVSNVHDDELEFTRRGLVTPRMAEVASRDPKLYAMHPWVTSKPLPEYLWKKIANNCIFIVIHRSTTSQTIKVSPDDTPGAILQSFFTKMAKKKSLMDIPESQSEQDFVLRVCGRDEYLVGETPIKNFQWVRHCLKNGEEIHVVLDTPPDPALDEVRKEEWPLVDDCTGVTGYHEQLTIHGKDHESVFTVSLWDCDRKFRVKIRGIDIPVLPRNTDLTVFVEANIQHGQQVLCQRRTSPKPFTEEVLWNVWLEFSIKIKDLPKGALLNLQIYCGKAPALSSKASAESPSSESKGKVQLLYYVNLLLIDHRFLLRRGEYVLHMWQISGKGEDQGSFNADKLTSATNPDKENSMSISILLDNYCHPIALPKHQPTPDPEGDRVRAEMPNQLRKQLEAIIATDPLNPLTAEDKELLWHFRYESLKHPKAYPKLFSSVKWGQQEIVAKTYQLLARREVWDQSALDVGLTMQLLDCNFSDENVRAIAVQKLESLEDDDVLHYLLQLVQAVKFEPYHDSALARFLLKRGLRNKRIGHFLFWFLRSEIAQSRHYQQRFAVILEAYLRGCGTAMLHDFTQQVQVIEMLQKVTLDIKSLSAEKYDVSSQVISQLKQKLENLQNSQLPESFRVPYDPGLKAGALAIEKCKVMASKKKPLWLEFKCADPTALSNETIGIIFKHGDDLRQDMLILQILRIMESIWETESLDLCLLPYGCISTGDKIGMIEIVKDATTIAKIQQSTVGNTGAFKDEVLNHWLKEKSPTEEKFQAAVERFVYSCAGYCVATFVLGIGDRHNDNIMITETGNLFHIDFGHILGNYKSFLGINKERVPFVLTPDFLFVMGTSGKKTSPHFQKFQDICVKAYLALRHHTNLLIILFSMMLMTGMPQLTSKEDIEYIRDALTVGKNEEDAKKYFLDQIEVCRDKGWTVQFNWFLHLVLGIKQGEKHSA

For orientation, consider the following solved cases.
{"COMPOUND": "CC(Nc1cc(F)cc(F)c1)c1cc(CN2C[C@@H](C)O[C@@H](C)C2)cc2ncc(N3CCOCC3)nc12 (single isomer, unassigned) [Compound 208]", "Kd": "> 30.2 µM"}
{"COMPOUND": "CC(Nc1cc(F)cc(F)c1)c1cc(C2=NC(C)(C)CO2)cc2ncc(N3CCOCC3)nc12 (single isomer, unassigned)", "Kd": "> 30.2 µM"}

Identify Kd associated with the compound CNCCOCCN(C)C(=O)c1cc(C(C)Nc2cc(F)c(F)c(F)c2)c2nc(N3CCOCC3)cnc2c1 (single isomer, unassigned) [Compound 315a]
> 30.2 µM

* * *

Where a name gives a salt, the structure may show the parent alone.
METRIC_NAME: melting point (°C)
Output spec: scalar in °C, unitless text.

{"COMPOUND": "CNCC(O)c1cc(C2CCCN2c2cc(F)cc(F)c2)c2nc(N3CCOCC3)cnc2c1 (centres unmarked)", "melting point [°C]": 80}
{"COMPOUND": "CC(Nc1cc(F)cc(F)c1)c1cc(CO)cc2ncc(N3CCOCC3)nc12 (single isomer, unassigned) [Compound 154b]", "melting point [°C]": 90}
{"COMPOUND": "CC(C)NCCNC(=O)c1cc(C(C)Nc2ccc(F)c(F)c2)c2nc(N3CCOCC3)cnc2c1 (centres unmarked)", "melting point [°C]": 80}
{"COMPOUND": "CNCCN(C)C(=O)c1cc(C(C)Nc2cc(F)cc(F)c2)c2nc(N3CCOCC3)cnc2c1 (single isomer, unassigned)", "melting point [°C]": 80}
{"COMPOUND": "CCN1CCN(C(=O)c2cc(C3CCCN3c3cc(F)cc(F)c3)c3nc(N4CCOCC4)cnc3c2)CC1 (centres unmarked)", "melting point [°C]": 80}

Find the measured melting point of CN[C@@H]1CCN(C(=O)c2cc(C(C)Nc3ccc(F)c(F)c3)c3nc(N4CCOCC4)cnc3c2)C1 (single isomer, unassigned) [Compound 371a] and report it.
114

In one line, give reported melting point of the entry CN(C)C(=O)c1cc(C2CCCN2c2ccc(F)cc2)c2nc(N3CCOCC3)cnc2c1 (centres unmarked) .
80

Consider the compound C[C@H](CO)NCc1ccc(F)cc1N1CCCC1c1cc(C(=O)N(C)C)cc2ncc(N3CCOCC3)nc12 (mixture of isomers) and give its recorded melting point.
80

Note down melting point recorded for COCCNCc1cc(C2CCCN2c2cc(F)cc(F)c2)c2nc(N3CCOCC3)cnc2c1 (centres unmarked)
80

Please give the documented melting point of CC(Nc1cc(F)cc(F)c1)c1cc(C(=O)NCCOCCN)cc2ncc(N3CCOCC3)nc12 (centres unmarked)
80

Give a short answer stating reported melting point for CNCCNC(=O)c1cc(C(C)Oc2ccc(F)c(F)c2)c2nc(N3CCOCC3)cnc2c1 (single isomer, unassigned) [Compound 344a] .
75

Identify measured melting point associated with O=C(c1cc(C2CCCN2c2cc(F)cc(F)c2)c2nc(N3CCOCC3)cnc2c1)N1CC(CO)C1 (centres unmarked)
100

Read the entry CNC(=O)c1cc(C2CCCN2c2cc(F)cc(F)c2)c2nc(N3CCOCC3)cnc2c1 (single isomer, unassigned) and write its reported melting point.
80

Look up melting point of COC1CN(Cc2cc(C(C)Nc3cc(F)cc(F)c3)c3nc(N4CCOCC4)cnc3c2)CC1OC (single isomer, unassigned) (as salt: hydrochloride) and report it.
80
